Assignment: determine reported GI50 for the given molecules.
- Tested on: SN12C
- test-summary: Antiproliferative activity against human SN12C cells
- Format: functional

Input line: Which GI50 is reported for this molecule? CN1CCN(Cc2c3c(nc4ccccc24)-c2cc4ccccc4c(=O)n2C3)CC1
Output line: > 100 µM

Input line: If you can, please state the reported GI50 value of O=c1c2ccccc2cc2n1Cc1cc3ccccc3nc1-2 [ROSETTACIN] .
Output line: > 100 µM

Input line: Report GI50 for CN(C)Cc1c2c(nc3ccccc13)-c1cc3ccccc3c(=O)n1C2 please.
Output line: > 100 µM

###

Kindly supply the reported GI50 values for the records listed here.
- System: SN12C
- test-summary: Antiproliferative activity against human SN12C cells
- Assay type: functional

Input line: Field: GI50 (SN12C). Entry: COc1cc2cc3n(c(=O)c2cc1OC)Cc1cc2ccccc2nc1-3
Output line: > 100 µM

Input line: Look up GI50 with SN12C for this molecule: O=c1c2ccccc2cc2n1Cc1c-2nc2ccccc2c1CCl
Output line: > 100 µM

Input line: Find GI50 (SN12C) for the entry COc1cc2c3c(n(CCCNCCO)c(=O)c2cc1OC)-c1cc2c(cc1C3=O)OCO2
Output line: > 0.01 µM
